Hello, the source for this data is ChEMBL document CHEMBL3988442, in case you need it.

Please provide measured Percent Effect for the entries that follow.
- Experimental target: Shiga toxin 2 (Escherichia coli O157:H7) (UniProt P09385+P09386)
- Assay comment: E. coli 0.157:H7 Shiga Toxin SOP - stx2 screening assay
- Format: functional
- Design: scale not given: direction of the effect not stated beside the values
- Settings: 30 µM
Field: value (include unit after the number)

Example entries and their recorded answers appear below.
Compound	Experimental target	Result
COc1ccc(C(CO)NC(=O)Nc2cccc(C#N)c2)cc1 (configuration not stated)	Shiga toxin 2 (Escherichia coli O157:H7) (UniProt P09385+P09386)	-32.6%
CC(Oc1ccccc1C(F)(F)F)C(=O)NCC(N)=O (configuration not stated)	Shiga toxin 2 (Escherichia coli O157:H7) (UniProt P09385+P09386)	11.5%
CC(C(=O)N1CCCN(c2ccc(C#N)cc2)CC1)n1ccnc1 (configuration not stated)	Shiga toxin 2 (Escherichia coli O157:H7) (UniProt P09385+P09386)	4.39%
CC(C)c1nc(C2CCCN(C(=O)CCn3ccnc3)C2)no1 (configuration not stated)	Shiga toxin 2 (Escherichia coli O157:H7) (UniProt P09385+P09386)	3.56%
CC(=O)N1CCCC1c1ccc(-c2c(C)noc2C)cn1 (configuration not stated)	Shiga toxin 2 (Escherichia coli O157:H7) (UniProt P09385+P09386)	-2.58%
Cc1nc(C)n(CC2CCCN2Cc2cn(-c3ccccc3)nn2)n1 (configuration not stated)	Shiga toxin 2 (Escherichia coli O157:H7) (UniProt P09385+P09386)	-8.85%
CSCCCN1CCCC1c1noc(C)n1 (configuration not stated)	Shiga toxin 2 (Escherichia coli O157:H7) (UniProt P09385+P09386)	11.3%
CN(CC(=O)N1CCCC1Cn1cccn1)c1cnccn1 (configuration not stated)	Shiga toxin 2 (Escherichia coli O157:H7) (UniProt P09385+P09386)	-0.699%
Cc1occc1C(=O)N1CCC2(CCCN(CC3CCC3)C2=O)C1 (configuration not stated)	Shiga toxin 2 (Escherichia coli O157:H7) (UniProt P09385+P09386)	-2.14%
C1CC(CN2CCOCC3(CCN(C4CCOCC4)C3)C2)CCO1 (configuration not stated)	Shiga toxin 2 (Escherichia coli O157:H7) (UniProt P09385+P09386)	-4.37%

For every record below, what is its Percent Effect?
1. Fc1cccc(N2C[C@H]3CCN(c4cccnc4)C[C@H]3C2)c1
2. CS(=O)(=O)Cc1cccc(C(=O)N2CCCC(n3cccn3)C2)c1 (configuration not stated)
3. c1cnc(N2CCC3(CCN(Cc4ccncc4)CC3)CC2)nc1
4. c1ccc(-c2cnc(CNCC3CCCN3c3cccnn3)o2)cc1 (configuration not stated)
5. CN(C)CC1CN(Cc2coc(-c3ccccc3Cl)n2)CCO1 (configuration not stated)
6. Cc1ccc(CN2CCn3c(C(=O)N(C)C)cnc3C2)s1
7. COc1ccc(CCC(=O)Nc2cccnc2N2CCCC2)cc1Br

1: -16.5%; 2: -47.9%; 3: 1.18%; 4: 11.4%; 5: -26.4%; 6: -13.3%; 7: 28.3%

For every record below, what is its Percent Effect?
1. COc1ncccc1CN1Cc2nnn(C)c2C(COCC2CC2)C1 (configuration not stated)
2. CC(=O)N1C[C@@H](c2ccsc2)[C@@H]2CN(Cc3ccccc3)CC[C@@H]21

1. -10.1%
2. -20.6%

For every record below, what is its Percent Effect?
1. Cc1nc(COC[C@@H]2CCC[C@@]23CNCCO3)cs1
2. CC(C)(C)c1nc(CN(Cc2cccs2)C2CCS(=O)(=O)C2)no1 (configuration not stated)

1. -7.74%
2. 24.2%

---

Please provide measured Percent Effect for the entries that follow.
- Experimental target: Proteasome subunit beta (Trypanosoma cruzi) (UniProt O96673)
- Sequence (O96673 as listed by the source): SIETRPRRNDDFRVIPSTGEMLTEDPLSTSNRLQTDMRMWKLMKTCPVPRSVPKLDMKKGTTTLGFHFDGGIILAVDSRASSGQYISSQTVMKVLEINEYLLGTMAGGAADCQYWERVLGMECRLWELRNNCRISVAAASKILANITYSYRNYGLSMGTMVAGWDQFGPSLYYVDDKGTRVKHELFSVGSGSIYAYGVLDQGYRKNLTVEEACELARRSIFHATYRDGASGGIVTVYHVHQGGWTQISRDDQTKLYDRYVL
- Assay comment: Trypanosoma cruzi proteasome chymotrypsin-like activity (TcProtChymo) assay. Also: in the data most compounds retested in dose-response had high values.
- Assay type: functional
- Set-up: scale not given: direction of the effect not stated beside the values
- Settings: 9.37 µM
One number for each entry, in %.

For every record below, what is its Percent Effect?
1. CC(Cc1c(F)cccc1F)NC(=O)Nc1cnn(CC(N)=O)c1 (stereo unspecified)
2. Cc1cc(CN2CC[C@H]3C[C@H](c4nccs4)O[C@@H]3C2)no1

1: 19.7; 2: 12.9

For every record below, what is its Percent Effect?
1. CCc1nc(CNC(C)Cn2cccn2)cs1 (stereo unspecified)
2. CCN(CC)C(=O)c1ccc(NC(=O)CNc2ccc(F)cc2Cl)cc1
3. COc1ccc(-c2n[nH]cc2C2SCC(=O)Nc3[nH]ncc32)cc1 (stereo unspecified)
4. CC(c1ccc(F)cc1)N1CCN(Cc2ccc(C#N)cc2)CC1 (stereo unspecified)
5. CN1CCCC(Cc2cncc(Br)c2)CC1 (stereo unspecified)
6. Cc1nc(C2(NCC(=O)NC(=O)NCc3cccs3)CCCCC2)no1

9.73
16.6
14.9
7.57
9.05
-0.479

For every record below, what is its Percent Effect?
1. O=C1CC[C@H]2[C@H](CCN2Cc2ccccn2)N1CC1CCOCC1
2. O=C(Cc1ccc(O)c(Cl)c1)N1CCN(CC2CC2)[C@@H]2CS(=O)(=O)C[C@@H]21

[3.35, 7.54]

The recorded Percent Effect for `CCc1ccc(CN2CCN(C)c3ncccc3C2)o1` is 7.68

---

- Experimental target: Shiga toxin 2 (Escherichia coli O157:H7) (UniProt P09385+P09386)
- Assay comment: E. coli 0.157:H7 Shiga Toxin SOP - stx2 screening assay
- Type: functional
- Set-up: scale not given: direction of the effect not stated beside the values
- Settings: 30 µM
Measured parameter: Percent Effect
Field: value (include unit after the number)

Compound	Percent Effect
Cc1cc(C)n(CC2CCCN2C(=O)CCCNc2ncccn2)n1 (configuration not stated)	26.1%
Cc1cccc(C)c1OCCNC(=O)NC(C)c1nncn1C (configuration not stated)	-46.4%
N#Cc1ccccc1C(=O)N1C[C@H](CO)C[C@H](CN2CCCC2)C1	0.715%
CCCc1nc(N2CCN(CC)CC2)c2c(n1)c(C)nn2CC	-8.6%
Cn1cc(C2CC(=O)NC23CCN(CC2CC2)CC3)cn1 (configuration not stated)	-21.4%
O=C(c1cnccn1)N1CCN2C[C@H](OCc3ccccn3)C[C@H]2C1	-7.9%

For every record below, what is its Percent Effect?
1. Cc1ccc2cc(CNCCCN3CCOCC3)c(=O)[nH]c2c1
2. Cc1cc(CNc2cc(Cl)ccc2OCCS(C)(=O)=O)no1

["-12.7%", "-0.408%"]

---

- Experimental target: Shiga toxin 2 (Escherichia coli O157:H7) (UniProt P09385+P09386)
- Assay comment: E. coli 0.157:H7 Shiga Toxin SOP - stx2 screening assay
- Format: functional
- Design: scale not given: direction of the effect not stated beside the values
- Settings: 30 µM
Please provide measured Percent Effect for the entries that follow.
One number for each entry, in %.

For every record below, what is its Percent Effect?
1. Cc1c(C(=O)NCC(C)C)nnn1-c1cccc2c1CCN(C)C2
2. CC(C)(C)C(O)CN1CCN(C(=O)c2cccc3[nH]ncc23)CC1 (stereo unspecified)
3. Cc1ccc([C@@H]2CN(S(=O)(=O)N(C)C)C[C@H]2N(C)C)cc1
4. Cc1cccc(-c2nc(CN3CCCCC3Cn3cncn3)no2)c1 (stereo unspecified)

[-7.34, -5.59, 5.3, 15.3]

For every record below, what is its Percent Effect?
1. Cc1ccc(C(=O)N2CCN(C(=O)NC(C)Cn3ccnc3)CC2)o1 (stereo unspecified)
2. CCOC(=O)NC(CNC(=O)c1ccccn1)CC(C)C (stereo unspecified)

1. 17.6
2. -4.01

---

Please provide measured Percent Effect for the entries that follow.
- Experimental target: Aspartate--tRNA(Asp/Asn) ligase (Mycobacterium tuberculosis (strain ATCC 25618 / H37Rv)) (UniProt P9WFW3); also: in the data most compounds retested in dose-response had high values
- Sequence (P9WFW3 whole entry): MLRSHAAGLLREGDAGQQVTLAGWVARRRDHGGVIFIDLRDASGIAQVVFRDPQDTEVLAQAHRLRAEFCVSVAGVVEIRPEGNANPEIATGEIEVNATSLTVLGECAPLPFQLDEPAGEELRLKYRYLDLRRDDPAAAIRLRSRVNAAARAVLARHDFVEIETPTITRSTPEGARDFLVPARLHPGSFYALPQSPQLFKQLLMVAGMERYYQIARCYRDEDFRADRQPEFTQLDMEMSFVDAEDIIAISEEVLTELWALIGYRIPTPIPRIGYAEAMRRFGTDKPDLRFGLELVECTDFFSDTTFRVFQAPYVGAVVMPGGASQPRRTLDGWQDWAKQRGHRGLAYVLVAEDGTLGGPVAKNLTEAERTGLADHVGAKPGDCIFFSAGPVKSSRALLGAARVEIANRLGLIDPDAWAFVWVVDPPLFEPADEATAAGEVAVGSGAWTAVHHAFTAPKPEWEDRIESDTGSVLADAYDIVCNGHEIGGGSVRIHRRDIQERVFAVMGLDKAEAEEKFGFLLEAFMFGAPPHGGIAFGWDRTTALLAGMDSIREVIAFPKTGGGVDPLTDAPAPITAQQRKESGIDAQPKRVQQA
- Assay comment: Assay for Asp RNA synthetase-1 from Mycobacterium tuberculosis
- Assay type: functional
- Set-up: scale not given: direction of the effect not stated beside the values
- Settings: 30 µM
Answers are plain numbers, in %.

Compound	Measured parameter	Unit annotation	Result number
CNS(=O)(=O)c1ccc(C(=O)NC2CCOc3ccccc32)o1 (configuration not stated)	Percent Effect	%	-4.13
CC(C)n1ncc2c1NC(=O)CSC2C(C)(C)C (configuration not stated)	Percent Effect	%	-2.73
CCOCCN1CCN(Cc2cccc(C(=O)N(C)C)c2)CC1	Percent Effect	%	-3.67
Cc1cnn(CCNCc2csc(C)n2)c1	Percent Effect	%	0.747
CCOCC(=O)N1C[C@@H]2COC[C@H](c3nc(C)no3)[C@@H]2C1	Percent Effect	%	2.15

For every record below, what is its Percent Effect?
1. O=C(c1cnccn1)N1CCCC2(COCCN(CC3CC3)C2)C1 (configuration not stated)
2. CC(=O)c1cccc(NC(=O)CN2CCCCC2C2OCCO2)c1 (configuration not stated)
3. CCO[C@@H]1CO[C@@]2(CCCN(C(=O)c3ccc(OC)c(F)c3)C2)C1
4. CCc1[nH]ncc1C(=O)N1CCCC(n2ccnc2C(C)C)C1 (configuration not stated)
5. Nc1nc2nc(C3CCCN(C(=O)c4cscn4)C3)ccc2s1 (configuration not stated)

[3.16, 1.76, 2.11, 4.54, 0.603]

For every record below, what is its Percent Effect?
1. Cc1cnn(CCNCc2csc(-c3ccc(F)cc3)n2)c1
2. CCCC(=O)N1CCC2(CC1)CC(NC(C)=O)c1ccccc1O2 (configuration not stated)

-1.03
-5.26
